Target: T1, TNFR1 (Homo sapiens, UniProt P19438)
T1 chain: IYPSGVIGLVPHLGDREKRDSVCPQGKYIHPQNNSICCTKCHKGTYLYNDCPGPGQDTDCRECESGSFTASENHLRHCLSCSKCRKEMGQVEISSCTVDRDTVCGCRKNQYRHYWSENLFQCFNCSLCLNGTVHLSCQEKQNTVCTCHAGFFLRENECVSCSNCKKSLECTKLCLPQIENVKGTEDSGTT
Assay: yeast display SC50
Entries and their apparent Kd (screen)

Binder: L75N (designed binder) SMEEEVEKAAKEYEKKKKEAIEKHLEKLKAKDKEAAERFLKELEEAAKEYAKDEAKTMSEEEAKRRAKKYKEKVNLSELSEEEQKEIKEAEEKLVRTILKYVEEAAK
apparent Kd (screen) [nM]: 0.869
--
Binder: A63Q (designed binder) SMEEEVEKAAKEYEKKKKEAIEKHLEKLKAKDKEAAERFLKELEEAAKEYAKDEAKTMSEEEQKRRAKKYKEKVLLSELSEEEQKEIKEAEEKLVRTILKYVEEAAK
apparent Kd (screen) [nM]: 1.4
--
Binder: L99V (designed binder) SMEEEVEKAAKEYEKKKKEAIEKHLEKLKAKDKEAAERFLKELEEAAKEYAKDEAKTMSEEEAKRRAKKYKEKVLLSELSEEEQKEIKEAEEKLVRTIVKYVEEAAK
apparent Kd (screen) [nM]: 2.25
--
Binder: V102C (designed binder) SMEEEVEKAAKEYEKKKKEAIEKHLEKLKAKDKEAAERFLKELEEAAKEYAKDEAKTMSEEEAKRRAKKYKEKVLLSELSEEEQKEIKEAEEKLVRTILKYCEEAAK
apparent Kd (screen) [nM]: 1.4
--
Binder: E26F (designed binder) SMEEEVEKAAKEYEKKKKEAIEKHLFKLKAKDKEAAERFLKELEEAAKEYAKDEAKTMSEEEAKRRAKKYKEKVLLSELSEEEQKEIKEAEEKLVRTILKYVEEAAK
apparent Kd (screen) [nM]: 0.956
--
Binder: H24M (designed binder) SMEEEVEKAAKEYEKKKKEAIEKMLEKLKAKDKEAAERFLKELEEAAKEYAKDEAKTMSEEEAKRRAKKYKEKVLLSELSEEEQKEIKEAEEKLVRTILKYVEEAAK
apparent Kd (screen) [nM]: 0.49
--
Binder: H24D (designed binder) SMEEEVEKAAKEYEKKKKEAIEKDLEKLKAKDKEAAERFLKELEEAAKEYAKDEAKTMSEEEAKRRAKKYKEKVLLSELSEEEQKEIKEAEEKLVRTILKYVEEAAK
apparent Kd (screen) [nM]: 1.4
--
Binder: E54R (designed binder) SMEEEVEKAAKEYEKKKKEAIEKHLEKLKAKDKEAAERFLKELEEAAKEYAKDRAKTMSEEEAKRRAKKYKEKVLLSELSEEEQKEIKEAEEKLVRTILKYVEEAAK
apparent Kd (screen) [nM]: 18.3
--
Binder: K27A (designed binder) SMEEEVEKAAKEYEKKKKEAIEKHLEALKAKDKEAAERFLKELEEAAKEYAKDEAKTMSEEEAKRRAKKYKEKVLLSELSEEEQKEIKEAEEKLVRTILKYVEEAAK
apparent Kd (screen) [nM]: 0.79
--
Binder: A106Y (designed binder) SMEEEVEKAAKEYEKKKKEAIEKHLEKLKAKDKEAAERFLKELEEAAKEYAKDEAKTMSEEEAKRRAKKYKEKVLLSELSEEEQKEIKEAEEKLVRTILKYVEEAYK
apparent Kd (screen) [nM]: 2.73
--
Binder: A9F (designed binder) SMEEEVEKFAKEYEKKKKEAIEKHLEKLKAKDKEAAERFLKELEEAAKEYAKDEAKTMSEEEAKRRAKKYKEKVLLSELSEEEQKEIKEAEEKLVRTILKYVEEAAK
apparent Kd (screen) [nM]: 0.718
--
Binder: L28C (designed binder) SMEEEVEKAAKEYEKKKKEAIEKHLEKCKAKDKEAAERFLKELEEAAKEYAKDEAKTMSEEEAKRRAKKYKEKVLLSELSEEEQKEIKEAEEKLVRTILKYVEEAAK
apparent Kd (screen) [nM]: 0.49
--
Binder: E92T (designed binder) SMEEEVEKAAKEYEKKKKEAIEKHLEKLKAKDKEAAERFLKELEEAAKEYAKDEAKTMSEEEAKRRAKKYKEKVLLSELSEEEQKEIKEAETKLVRTILKYVEEAAK
apparent Kd (screen) [nM]: 3.3
--
Binder: L75C (designed binder) SMEEEVEKAAKEYEKKKKEAIEKHLEKLKAKDKEAAERFLKELEEAAKEYAKDEAKTMSEEEAKRRAKKYKEKVCLSELSEEEQKEIKEAEEKLVRTILKYVEEAAK
apparent Kd (screen) [nM]: 0.49
--
Binder: T57I (designed binder) SMEEEVEKAAKEYEKKKKEAIEKHLEKLKAKDKEAAERFLKELEEAAKEYAKDEAKIMSEEEAKRRAKKYKEKVLLSELSEEEQKEIKEAEEKLVRTILKYVEEAAK
apparent Kd (screen) [nM]: 0.49
--
Binder: H24A (designed binder) SMEEEVEKAAKEYEKKKKEAIEKALEKLKAKDKEAAERFLKELEEAAKEYAKDEAKTMSEEEAKRRAKKYKEKVLLSELSEEEQKEIKEAEEKLVRTILKYVEEAAK
apparent Kd (screen) [nM]: 1.05
